System: Rhizoctonia solani
Test: Fungicidal activity against Rhizoctonia solani infected in third leaf stage of rice plant at 500 mg/l applied as spray after 5 days under green house conditions relative to control
Type: functional
Reported Activity values are given for each entry in this list.
Lab book: enter the figure in %, no units written.

>>> df
                                   molecule  observed_property  result_units  assay_value
0  COc1cc(/C=C/C(=O)CC(=O)/C=C/c2ccc(O)c(OC)c2)ccc1O           Activity             %           63
1    C=C1CCC2(C(C)C)CC12 (stereo not given)           Activity             %            0
2  CC1(C)C2CCC1(C)C(O)C2 (stereo not given)           Activity             %            0
3                     CC12CCC(CC1)C(C)(C)O2           Activity             %            0

Continue with the molecule presented below.
molecule CC(C)=CC(=O)C[C@H](C)C1=CCC(C)=CC1 , Activity observed: 0

* * *

Tested on: Phytophthora infestans
Test: Fungicidal activity against Phytophthora infestans infected second leaf-stage of tomato plant at 1000 mg/l applied as spray after 4 days under green house conditions relative to control
Assay type: functional
observed property: Activity (%)
Lab book: enter the figure in %, no units written.

>>> print(df.to_string())
                                   compound           system_tested  assay_value
0  C=C1CCC2(C(C)C)CC12 (stereo not given) [SABINENE]  Phytophthora infestans            0

compound CC12CCC(CC1)C(C)(C)O2 [EUCALYPTOL] , Activity observed: 0

compound CC1(C)C2CCC1(C)C(O)C2 (stereo not given) [BORNEOL] , Activity observed: 0

compound CC(C)=CC(=O)C[C@H](C)C1=CCC(C)=CC1 [TURMERONE] , Activity observed: 0

compound COc1cc(/C=C/C(=O)CC(=O)/C=C/c2ccc(O)c(OC)c2)ccc1O [CURCUMIN] , Activity observed: 100

* * *

Test system: Phytophthora infestans
Assay: Fungicidal activity against Phytophthora infestans infected second leaf-stage of tomato plant at 500 mg/l applied as spray after 4 days under green house conditions relative to control
Assay type: functional
observed property: Activity (%)
Lab book: enter the figure in %, no units written.

>>> print(df.to_string())
                                   compound  result_units  assay_value
0  CC1(C)C2CCC1(C)C(O)C2 (stereo not given)             %            0

compound C=C1CCC2(C(C)C)CC12 (stereo not given) , Activity observed: 0

compound COc1cc(/C=C/C(=O)CC(=O)/C=C/c2ccc(O)c(OC)c2)ccc1O , Activity observed: 100

compound CC12CCC(CC1)C(C)(C)O2 , Activity observed: 0

compound CC(C)=CC(=O)C[C@H](C)C1=CCC(C)=CC1 , Activity observed: 0
